# System: Colletotrichum orbiculare
# assay remarks: Fungicidal activity against Colletotrichum orbiculare in the microtiterplate test
# Assay type: cell-based
# cond: Colletotrichum orbiculare; 0.25 ppm; read-out: Observed efficacy
quantity kind: inhibition of growth at […] (%)
Numbers only, in %.

• OC(Cc1ccccc1Cl)(Cn1nc[nH]c1=S)C1(Cl)CC1 (centres unmarked) = 14
• O=C(Nc1ccccc1-c1ccc(Cl)cc1)c1cccnc1Cl = 0
• CO/N=C(/C(=O)OC)c1ccccc1COc1ccccc1C = 45

Items follow; give inhibition of growth at […] for each.
1. CC(C)(C)C(O)(CCc1ccc(Cl)cc1)Cn1cncn1 (centres unmarked)
2. CC(C)CC(C)c1sccc1NC(=O)c1cn(C)nc1C(F)(F)F (centres unmarked)
3. COc1ccnc(C(=O)NC2COC(=O)[C@H](Cc3ccccc3)[C@@H](OC(=O)C(C)C)[C@H](C)OC2=O)c1O (some centres unmarked)
4. CCN(C)C=Nc1cc(Br)c(OC2CCC(C(C)C)CC2)nc1C (centres unmarked)
5. CCCC1COC(Cn2cncn2)(c2ccc(Cl)cc2Cl)O1 (centres unmarked)

Result ::
1. 14
2. 8
3. 77
4. 26
5. 15
